target-of-assay: T1, chimeric human/cynomolgus monkey CD89-IV (human/cynomolgus monkey chimera, UniProt P24071 22-287)
T1 construct: also called ΔArg97-Gly121 human EC1-CD89
T1 chain: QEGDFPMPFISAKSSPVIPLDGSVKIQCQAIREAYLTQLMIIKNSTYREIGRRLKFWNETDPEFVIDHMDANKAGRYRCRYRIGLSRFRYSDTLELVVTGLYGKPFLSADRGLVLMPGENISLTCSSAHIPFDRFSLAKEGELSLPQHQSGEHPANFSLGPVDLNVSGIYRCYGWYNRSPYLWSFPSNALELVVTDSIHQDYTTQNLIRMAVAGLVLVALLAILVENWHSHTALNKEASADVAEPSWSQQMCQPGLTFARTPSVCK
assay-procedure: FACS, transiently transfected HEK293F, 10 ug/mL; ++ strong, + intermediate, -/+ weak
endpoint: binding result

- binder: "mouse anti-human CD89-specific antibody 8F3 (antibody, mouse IgG1, V domains shown) VH: EVQLVESGGGLVKPGGSLKLSCAASGFTFSNYGMSWVRQTPDKRLEWVATMHSGGTYTYYPDNVKGRFTISRDNAKNNLYLQMSSLRSEDTAMYYCARETGLYDGLFDFWGQGTTLTVSS VL: DVQITQSPSYLAASPGETITINCRASKTISKYLAWYQEKPGKTNMLLIYSGSTLQSGVPSRFSGSGSGTDFTLTISSLEPEDLAMYYCQQHDEYPWTFGGGTKLEIK"
  endpoint-value: "binds"
- binder: "mouse anti-human CD89-specific antibody 20B4 (antibody, mouse IgG1, V domains shown) VH: QVQLKESGPGLVAPSQSLSITCTVSGFSLTSYGVHWVRQPPGKGLEWLGIIWAGGSTSYNSALMSRLSISKDNSKSQVFLKMNSLQTDDTAMYYCARDHYDLFAYWGQGTLVTVSA VL: DILMTQSPSSMSVSLGDTVSITCHASQDISRNIGWLQQKPGKSFKGLIYHGTNLEDGVPSRFSGSGSGADYSLTISSLESEDFADYYCVQYAQFPRTFGGGTKLEIK"
  endpoint-value: "binds"
- binder: "mouse anti-human CD89-specific antibody 30C7 (antibody, mouse IgG1, V domains shown) VH: QVQLQQSGPELVRPGVSVKISCKGSGYTFTDYVMHWVKQSHAKSLEWIGVISTYSGNTNYNQKFKGKATMTVDKSSSTAYMELARLTSEDSAIYYCARESDGYYFDYWGQGTTLTVSS VL: DIVMSQSPSSLAVSAGEKVTMSCKSSQSLLNSRTRKNYLAWYQQKPGQSPKLLIYWASTRESGVPDRFTGSGSGTDFTLTISSVQAEDLAVYYCKQSYNLMYTFGGGTKLEIK"
  endpoint-value: "binds"
- binder: "mouse anti-human CD89-specific antibody 10E7 (antibody, mouse IgG1, V domains shown) VH: EVQLVESGGGLVQPGGSLKLSCAASGLTFSSYGMSWVRQTPDKRLELVATINGNGDITYYPDSVKGRFTISRDNAKNTLYLQMSSLKSEDTAMYYCARDYDYDYAMDYWGQGTSVTVSS VL: DIQMTQSTSSLSASLGDSVTISCRASQDIINYLNWYQQKPDGTVKLLIYYTSRLHSGVPSRFSGSGSGTEYSLTVSNLEKEDIATYFCQQGKTLPYTFGGGTKLEIK"
  endpoint-value: "binds"
